The entries below come with measured EC50 values attached.
# target: T1, hu_CXCR2_N-term (1-17)-Trf (human, coupled to carrier protein human transferrin; C-terminal cysteine introduced to enable coupling)
# T1 construct: Synthetic linear peptide chemically coupled to the carrier; also called CXCR2_aa1-17_TRF; N-terminal peptide aa1-17, Transferrin-coupled
# T1 sequence (P02787 20-698 limits assumed): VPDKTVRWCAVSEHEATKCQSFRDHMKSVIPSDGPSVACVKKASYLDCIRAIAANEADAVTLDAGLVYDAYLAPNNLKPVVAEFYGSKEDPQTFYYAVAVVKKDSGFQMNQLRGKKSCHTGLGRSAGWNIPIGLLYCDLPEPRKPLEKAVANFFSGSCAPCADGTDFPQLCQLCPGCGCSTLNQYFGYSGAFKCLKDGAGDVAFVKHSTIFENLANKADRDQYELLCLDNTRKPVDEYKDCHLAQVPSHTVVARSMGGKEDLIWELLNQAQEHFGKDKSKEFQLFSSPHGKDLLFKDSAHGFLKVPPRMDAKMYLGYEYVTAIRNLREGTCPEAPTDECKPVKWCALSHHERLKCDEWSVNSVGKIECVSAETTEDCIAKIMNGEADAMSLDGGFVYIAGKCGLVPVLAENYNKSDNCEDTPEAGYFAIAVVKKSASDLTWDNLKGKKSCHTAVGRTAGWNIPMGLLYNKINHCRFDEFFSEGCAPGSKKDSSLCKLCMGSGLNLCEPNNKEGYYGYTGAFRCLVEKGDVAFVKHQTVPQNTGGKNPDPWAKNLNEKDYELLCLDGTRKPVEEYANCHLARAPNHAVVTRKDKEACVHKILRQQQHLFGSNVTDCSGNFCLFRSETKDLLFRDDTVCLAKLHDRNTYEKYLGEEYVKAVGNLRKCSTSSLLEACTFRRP
# test-description: ELISA, coated peptide-TRF, Fab
Write the number in nM without appending the unit.

Solved entries (count: 2):
[[record]]
binder = "CX2-Mab #4 (Fab format) (Fab, V domains shown) VH: EVQLLESGGGLVQPGGSLRLSCAASGFTFSSNGMSWVRQAPGKGLEWVSAISSSGSKTYYADSVKGRFTISRDNSKNTLYLQMNSLRAEDTAVYYCARGYGFDVWGQGTLVTVSS VL: DIVLTQPPSVSGAPGQRVTISCSGSSSNIGVNIVNWYQQLPGTAPKLLIYSTSNRPSGVPDRFSGSKSGTSASLAITGLQAEDEADYYCATRDGISKSVVFGGGTKLTVLG"
unit_spec = "nM"
recorded_number = 0.4

[[record]]
binder = "CX2-Mab #3 (Fab format) (Fab, V domains shown) VH: EVQLLESGGGLVQPGGSLRLSCAASGFTFSSYWMSWVRQAPGKGLEWVSVISYSGSETFYADSVKGRFTISRDNSKNTLYLQMNSLRAEDTAVYYCARGRVGYAFDYWGQGTLVTVSS VL: DIVLTQPPSVSGAPGQRVTISCSGSSSNIGVNYVNWYQQLPGTAPKLLIYSNNQRPSGVPDRFSGSKSGTSASLAITGLQAEDEADYYCQSRASGFYSVVFGGGTKLTVLG"
unit_spec = "nM"
recorded_number = 2


Turning to the following binder.
Task: Look up EC50 for this binder: CX2-Mab #5 (Fab format) (Fab, V domains shown) VH: EVQLLESGGGLVQPGGSLRLSCAASGFTFNSNAMSWVRQAPGKGLEWVSFISYSGSHTYYADSVKGRFTISRDNSKNTLYLQMNSLRAEDTAVYYCARYTRFLSRPAFDPWGQGTLVTVSS VL: DIVLTQPPSVSGAPGQRVTISCTGSSSNIGAGYDVHWYQQLPGTAPKLLIYYNSKRPSGVPDRFSGSKSGTSASLAITGLQAEDEADYYCGAYDRKMNSYVFGGGTKLTVLG
Result: 0.5
